# target of assay: huPPARγ (Homo sapiens, UniProt P37231)
# Sequence (P37231 1-505): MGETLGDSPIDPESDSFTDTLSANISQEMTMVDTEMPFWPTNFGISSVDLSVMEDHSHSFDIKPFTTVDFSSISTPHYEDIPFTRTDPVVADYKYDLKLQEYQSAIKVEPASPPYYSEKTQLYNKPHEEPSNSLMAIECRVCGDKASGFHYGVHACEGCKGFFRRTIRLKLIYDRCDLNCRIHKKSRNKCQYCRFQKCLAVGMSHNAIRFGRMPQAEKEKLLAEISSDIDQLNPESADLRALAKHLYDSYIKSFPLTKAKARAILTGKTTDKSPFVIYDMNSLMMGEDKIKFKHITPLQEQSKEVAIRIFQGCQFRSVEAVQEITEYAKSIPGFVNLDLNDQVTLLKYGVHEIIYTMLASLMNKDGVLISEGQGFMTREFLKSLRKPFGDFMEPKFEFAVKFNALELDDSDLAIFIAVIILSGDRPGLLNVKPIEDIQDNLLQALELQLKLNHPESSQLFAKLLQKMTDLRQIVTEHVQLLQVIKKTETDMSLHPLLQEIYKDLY
# Sequence (P19793 1-462 partner): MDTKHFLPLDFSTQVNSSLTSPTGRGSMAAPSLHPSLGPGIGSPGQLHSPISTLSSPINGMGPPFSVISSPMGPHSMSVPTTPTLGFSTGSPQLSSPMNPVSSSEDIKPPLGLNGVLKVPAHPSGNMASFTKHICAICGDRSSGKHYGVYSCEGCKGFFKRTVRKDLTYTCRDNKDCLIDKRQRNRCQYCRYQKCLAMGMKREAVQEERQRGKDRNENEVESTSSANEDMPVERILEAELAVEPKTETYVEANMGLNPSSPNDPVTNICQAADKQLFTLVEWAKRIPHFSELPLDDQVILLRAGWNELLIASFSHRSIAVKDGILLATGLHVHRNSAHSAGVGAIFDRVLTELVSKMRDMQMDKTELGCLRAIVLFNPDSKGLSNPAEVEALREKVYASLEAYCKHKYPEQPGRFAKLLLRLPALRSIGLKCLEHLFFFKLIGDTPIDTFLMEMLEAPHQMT
# assay text: Cotransfection assay in CV-1 cells, AOX PPRE luciferase reporter
# applied conditions: Table 4, effect of X/Y, scaffold drawing 255
reported property: pEC50
For clarity, pEC50 is expressed as the negative log10 of concentration in mol/L.

Data request, read-out pEC50, for CCc1ccc(OC(C)CCSc2ccc(OCC(=O)O)c(C)c2)c(C(=O)c2ccccc2)c1 (stereo not shown) [S/O]
6.58

---

# target of assay: huPPARδ (Homo sapiens, UniProt Q03181)
# Sequence (Q03181 211-441 limits assumed): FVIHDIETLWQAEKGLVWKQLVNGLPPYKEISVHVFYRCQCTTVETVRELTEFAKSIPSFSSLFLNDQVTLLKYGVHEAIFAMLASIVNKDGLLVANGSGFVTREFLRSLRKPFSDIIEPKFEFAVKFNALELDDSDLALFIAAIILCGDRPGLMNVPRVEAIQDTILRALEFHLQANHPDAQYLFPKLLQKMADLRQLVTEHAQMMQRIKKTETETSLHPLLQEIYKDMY
# assay text: Cotransfection assay in CV-1 cells, GAL4 chimeric system, luciferase reporter
reported property: EC50 (µM)
State the answer as a number, implicitly in µM.

Data request, read-out EC50, for CCc1ccc(OC(C)CCSc2ccc(OCC(=O)O)c(C)c2)c(C(=O)c2ccccc2)c1 (stereo not shown)
0.023
